assayed-system: Protein lin-28 homolog A (Homo sapiens, UniProt Q9H9Z2)
Sequence (Q9H9Z2 whole entry): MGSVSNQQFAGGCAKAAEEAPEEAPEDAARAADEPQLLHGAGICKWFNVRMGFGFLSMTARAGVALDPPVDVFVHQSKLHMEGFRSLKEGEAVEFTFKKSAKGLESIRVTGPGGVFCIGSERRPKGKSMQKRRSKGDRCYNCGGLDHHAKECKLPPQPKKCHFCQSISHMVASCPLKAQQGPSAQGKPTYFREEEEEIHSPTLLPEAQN
assay-remarks: Binding affinity to recombinant human N-terminal His6-tagged Lin28a expressed in Escherichia coli Rosetta2 (DE3) pLysS by surface plasmon resonance analysis
value-type: Kd

Return reported Kd. Input compound: NC(=O)c1c(Nc2ccc(Cl)cc2Cl)[nH]c2c(Cl)ccc(Cl)c2c1=O
5.9 µM
